These measurements were taken from patent US20240247080A1.

Exercise: state measured pEC50 for each of the substances provided.
TARGET: hGIPR (Homo sapiens, UniProt P48546)
Construct: expressed in transfected cells; host or cells: CHO cells carrying a CRE-luciferase reporter gene
Sequence (P48546 22-466): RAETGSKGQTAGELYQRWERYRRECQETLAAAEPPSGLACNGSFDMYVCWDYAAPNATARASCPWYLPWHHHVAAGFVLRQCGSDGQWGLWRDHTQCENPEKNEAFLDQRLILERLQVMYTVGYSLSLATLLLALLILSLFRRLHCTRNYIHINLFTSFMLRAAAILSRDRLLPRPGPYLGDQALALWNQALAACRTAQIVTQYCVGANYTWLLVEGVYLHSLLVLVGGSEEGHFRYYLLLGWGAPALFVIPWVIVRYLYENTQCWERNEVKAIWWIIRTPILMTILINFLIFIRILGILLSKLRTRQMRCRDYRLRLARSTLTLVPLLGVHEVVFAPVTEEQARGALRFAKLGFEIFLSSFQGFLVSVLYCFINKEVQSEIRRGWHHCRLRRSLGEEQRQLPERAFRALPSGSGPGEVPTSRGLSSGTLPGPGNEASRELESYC
EXPERIMENT DESCRIPTION: hGIPR CreLuc reporter gene assay in 0.5% and 100% plasma
Type: cell-based
EXPERIMENTAL SETUP: CreLuc reporter gene assay, 0.5% human plasma; read-out: hGIPR 0.5% hP
Starred links: 1 amine or outer side, 2 acyl side, 3 side chain; linkers in the order of their positions; H or OH if unused. Positions of bridges follow the written chain, without caps; N, C: chain ends. Non-standard residues stand in square brackets, D forms with d. Groups on a side chain read outwards from the residue. Chains are numbered I, II in the order given. No end group written: not given here. *: point of attachment. C20 diacid = O=C(O)CCCCCCCCCCCCCCCCCCC(=O)*; C18 diacid = O=C(O)CCCCCCCCCCCCCCCCC(=O)*; γGlu = O=C(O)[C@H](CCC(=O)[*:2])N[*:1]; εLys = N[C@@H](CCCCN[*:1])C(=O)[*:2]; AEEA = NCCOCCOCC(=O)O; Aib = CC(C)(N)C(=O)O
Give bare numbers, as −log10 of the molar value.

Consider the reported pEC50 for these substances:
# SUBSTANCE, RECORDED MEASUREMENT
rows = [
    ("H-Y[Aib]EGTFTSDYSI[Aib]LEKQAQ[Aib]AFVEWLIK([εLys-γGlu-γGlu-γGlu-γGlu-γGlu-γGlu-C20 diacid])GGPSSGASLRHYINWLTRQRY-NH2 [Compound 106]", 9.59),
    ("H-Y[Aib]EGTFTSDYSI[Aib]LEKQAQ[Aib]AFVQWLIK([εLys-γGlu-γGlu-γGlu-γGlu-γGlu-γGlu-C20 diacid])GGPEEGASLRHYYNWLTRQRY-NH2 [Compound 89]", 9.00),
    ("I: H-Y[Aib]EGTFTSDYSI[Aib]LEKQAQ[Aib]AFVQWLIKGGPESGASLRHYYNWLTRQRY-NH2 / II: {C18 diacid}-EEEEE[εLys] (amide I:28-II:C) [Compound 63]", 9.89),
    ("H-Y[Aib]EGTFTSDYSI[Aib]LEKQAQ[Aib]AFVEWLIK([εLys-γGlu-γGlu-γGlu-γGlu-γGlu-γGlu-C20 diacid])GGPSEYVSLRHYYNWLTRQRY-NH2 [Compound 217]", 9.13),
    ("Y[Aib]EGTFTSDYSI[Aib]LEKQAQ[Aib]EFVEWLIK([AEEA-AEEA-γGlu-γGlu-γGlu-C18 diacid])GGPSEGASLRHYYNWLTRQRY-NH2 [Compound 284]", 9.48),
]

Please turn your attention to the following entry.
Inquiry: I would be grateful if you could share the reported pEC50 for H-Y[Aib]EGTFTSDYSI[Aib]LEKQAQ[Aib]AFVQWLIK([AEEA-AEEA-γGlu-γGlu-γGlu-γGlu-C18 diacid])GGPESGASLRHYYNWLTRQRY-NH2 [Compound 58] .
Reply text: 9.62
